experimental_target: T1, IRF4 DBD S114N (Homo sapiens, UniProt Q15306 20-132, S114N)
T1 sequence: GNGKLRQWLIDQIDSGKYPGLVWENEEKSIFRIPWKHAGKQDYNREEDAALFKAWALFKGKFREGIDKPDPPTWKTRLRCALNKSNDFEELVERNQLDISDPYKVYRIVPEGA
run_description: SPR two-state kinetic; FP: PBS + 0.05% Tween20, 5 nM DNA, 1 h, room temperature; SPR: Biacore S200, SA chip, protein 0.1-4500 nM, running buffer not given in material; errors are SD
measurement_context: protein: recombinant; tags: N-terminal His8-linker-His8-TEV, cleaved; label: 3' biotin; hairpin, TTTT loop
readout_type: pKd
// pKd is dimensionless: -log10 of concentration (M)

Can you look up the measured pKd of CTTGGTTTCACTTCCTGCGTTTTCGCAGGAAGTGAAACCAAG (structured_DNA) [IRE hairpin (biotin)] for me?
6.84
